Where these numbers come from: patent US6380146B1

# Test system: phenol oxidizing enzyme from Acremonium murorum
# assay text: Dye damage of the phenol oxidizing enzyme/enhancer system on colored swatch P10, consecutive washes in detergent formulation
# test parameters: 2nd wash, enzyme 20 mg/l, enhancer 250 μM, 40° C., 1 hour
Assign Color difference (ΔE) original P10 swatch vs after 2nd wash to each entry below.
Reply briefly: the number, and no unit.

stdin: If you can, please state the reported Color difference (ΔE) original P10 swatch vs after 2nd wash value of O=C(O)CCN1c2ccccc2Sc2ccccc21 [PTP, Phenothiazine-10-propionate] .
stdout: 0.78

stdin: If you can, please state the reported Color difference (ΔE) original P10 swatch vs after 2nd wash value of "O=S(=O)(Nc1cc(Br)c(O)c(Br)c1Br)c1ccccc1" .
stdout: 1.17

stdin: If you can, please state the reported Color difference (ΔE) original P10 swatch vs after 2nd wash value of "CCn1c(=NN=c2sc3cc(S(=O)(=O)O)ccc3n2CC)sc2cc(S(=O)(=O)O)ccc21" .
stdout: 1.51

stdin: If you can, please state the reported Color difference (ΔE) original P10 swatch vs after 2nd wash value of "Cc1ccc(S(=O)(=O)Nc2cc(Br)c(O)c(Br)c2Br)cc1" .
stdout: 0.98
